- STUDY_SYSTEM: Recombinant human IL-1beta (rhIL-1b) (human, UniProt P01584 117-269)
- TEST: cell-based or functional assay
Attribute: EC50, inhibition of IL-1β-induced IL-6 production in MRC-5 cells
Write the answer as a number in nM, unit excluded.

BINDER	UNIT_OF_MEASUREMENT	VALUE_REPORTED
9.19.1 (antibody, human IgG4, V domains shown, lambda; also called mAb 9.19.1) VH: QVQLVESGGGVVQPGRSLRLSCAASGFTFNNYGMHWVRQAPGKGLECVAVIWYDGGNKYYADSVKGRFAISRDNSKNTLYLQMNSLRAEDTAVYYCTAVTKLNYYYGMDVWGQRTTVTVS VL: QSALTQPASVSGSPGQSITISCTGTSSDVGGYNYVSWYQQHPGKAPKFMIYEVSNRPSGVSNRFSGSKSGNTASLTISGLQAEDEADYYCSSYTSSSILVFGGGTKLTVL	nM	2.91

Input 8.6.1 (antibody, human IgG4, V domains shown, lambda; also called 8.6.3) VH: QVQLQESGPGLVKPSETLSLTCTVSGGSVSSGGYYWSWVRQPPGKGLEWIGCIYFSESTNYNPSLKSRVTISVDTSKNQFSLKLSSVTAADTAVYYCARDPMHYYGMDVWGQGTTVTVSS VL: SFELTQPPSVSVSPGQTASITCSGDKLGDKFACWYQQKPGQSPVLVIYQDTKRPSGIPERISGSNSGNTATLTISGTQAMDEADYYCQAWDSSTYVVFGGGTKLTVL . Output EC50, inhibition of IL-1β-induced IL-6 production in MRC-5 cells: 1.59

Each recorded value in this set is attributed to patent US20070065439A1.
